Cited source: ChEMBL document CHEMBL4689842

System: Fibroblast
Assay: Multiplex assay against human fibroblast
Format: toxicity, cell-based
Details: 48 h, 10 µM, compound concentration 10 uM, replicate 2
MEASUREMENT_LABEL: Population Membrane Permeable-Phenotype (%)
Give bare numbers, in %.

Worked set:
1. CN1CCC(=C2c3ccccc3CC(=O)c3sccc32)CC1.O=C(O)/C=C/C(=O)O [KETOTIFEN FUMARATE]    13
2. Cl.O=C(c1ccc(Nc2nccc(-c3cc4ccccc4s3)n2)cc1)N1CCC(N2CCCC2)CC1    62
3. CCOc1cc(C(=O)N2CCC(N3CCN(C)CC3)CC2)ccc1Nc1ncc2c(n1)N(C1CCCC1)c1ccccc1C(=O)N2C    5
4. CN(C)C(=O)C(CCN1CCC(O)(c2ccc(Cl)cc2)CC1)(c1ccccc1)c1ccccc1.Cl [LOPERAMIDE HYDROCHLORIDE]    0
5. CNc1cc(Oc2cc(C(=O)Nc3cc(N4CCN(C)CC4)cc(C(F)(F)F)c3)ccc2C)ncn1    20

Kindly give each listed record's Population Membrane Permeable-Phenotype (%).
1. CCCn1c(=O)c2[nH]c(-c3cnn(Cc4cccc(C(F)(F)F)c4)c3)nc2n(CC)c1=O
2. O=C(Nc1ccc(-n2nc(-c3cccnc3)cc2C(F)(F)F)cn1)c1ccc(-c2ccccc2)c(F)c1
3. Cc1cn(-c2cc(NC(=O)c3ccc(C)c(Nc4nccc(-c5cccnc5)n4)c3)cc(C(F)(F)F)c2)cn1
4. S=C(NCCCc1c[nH]cn1)NCCCN(Cc1ccc(Cl)c(Cl)c1)c1ccc(Br)cn1
5. O=C(Cc1ccc(-c2ccc(OCCN3CCOCC3)cc2)cn1)NCc1ccccc1
6. O=C1NC(=O)C(c2cnc3ccccn23)=C1c1cn2c3c(cc(F)cc13)CN(C(=O)N1CCCCC1)CC2
7. CCCS(=O)(=O)c1nc(NC2CC2)cc(-c2ccc3c(ccn3C3CC(C)(C)NC(C)(C)C3)c2)n1
8. CCOc1cc2ncc(C#N)c(Nc3ccc(OCc4ccccn4)c(Cl)c3)c2cc1NC(=O)/C=C/CN(C)C

OUT:
1: 12; 2: 15; 3: 15; 4: 77; 5: 15; 6: 5; 7: 33; 8: 2

Kindly give each listed record's Population Membrane Permeable-Phenotype (%).
1. CN1C2CCC1CC(OC(c1ccc(F)cc1)c1ccc(F)cc1)C2.Cl (stereo not drawn)
2. Cl.O=c1c2cccn2c2ccccc2n1CCCN1CCC(c2ccc(Cl)cc2)CC1
3. CN1CCN(C(=O)C(C)(C)c2ccc(C(=O)Nc3cn4cc(-c5ccncc5)ccc4n3)cc2)CC1

OUT:
1: 11; 2: 3; 3: 47
